target of assay: BRAF G466V (Homo sapiens, UniProt P15056, G466V)
Construct: expressed in transfected cells
Sequence (P15056 whole entry G466V): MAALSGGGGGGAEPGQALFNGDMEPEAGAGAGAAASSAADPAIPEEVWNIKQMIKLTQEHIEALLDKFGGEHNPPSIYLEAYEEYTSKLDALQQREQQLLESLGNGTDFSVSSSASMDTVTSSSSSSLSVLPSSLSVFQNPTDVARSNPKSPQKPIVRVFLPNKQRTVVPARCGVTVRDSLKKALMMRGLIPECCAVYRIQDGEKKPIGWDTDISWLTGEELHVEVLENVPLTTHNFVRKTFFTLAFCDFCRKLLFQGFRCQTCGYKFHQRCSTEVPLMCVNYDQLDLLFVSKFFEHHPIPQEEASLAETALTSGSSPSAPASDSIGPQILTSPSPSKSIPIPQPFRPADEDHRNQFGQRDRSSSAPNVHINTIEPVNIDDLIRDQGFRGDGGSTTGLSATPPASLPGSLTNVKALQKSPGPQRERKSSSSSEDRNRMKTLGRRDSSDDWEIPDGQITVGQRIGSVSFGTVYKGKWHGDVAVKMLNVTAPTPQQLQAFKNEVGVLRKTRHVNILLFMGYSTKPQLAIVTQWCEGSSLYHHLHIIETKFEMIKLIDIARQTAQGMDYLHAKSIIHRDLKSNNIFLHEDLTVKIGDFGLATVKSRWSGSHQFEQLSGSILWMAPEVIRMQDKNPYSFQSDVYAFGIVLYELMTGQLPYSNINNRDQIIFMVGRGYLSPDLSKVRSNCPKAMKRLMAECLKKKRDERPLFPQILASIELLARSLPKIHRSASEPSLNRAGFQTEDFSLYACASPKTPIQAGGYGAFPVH
experimental protocol: Cellular assay of target protein degradation, T-Rex 293 cells stably transfected with HA-BRAF G466V (HA immunofluorescence, high content imaging)
Type: cell-based
measurement parameters: maximum degradation observed, T-Rex 293 HA-BRAF G466V
measure name: Dmax

- molecule: "O=C1CC[C@@H](N2Cc3cc(C[C@@H](O)CN4CC5(C4)CN(c4ccc(-c6cnc7[nH]cc(C(=O)c8c(F)ccc(NS(=O)(=O)N9CC[C@@H](F)C9)c8F)c7c6)cc4)C5)ccc3C2=O)C(=O)N1"
  target of assay: "BRAF G466V (Homo sapiens, UniProt P15056, G466V)"
  measure name: "Dmax"
  result: "> 70%"
- molecule: "O=C1CC[C@@H](N2Cc3cc(CC[C@@H](O)CN4CC5(C4)CN(c4ccc(-c6cnc7[nH]cc(C(=O)c8c(F)ccc(NS(=O)(=O)N9CC[C@@H](F)C9)c8F)c7c6)cc4)C5)ccc3C2=O)C(=O)N1"
  target of assay: "BRAF G466V (Homo sapiens, UniProt P15056, G466V)"
  measure name: "Dmax"
  result: "> 70%"
- molecule: "O=C1CCC(N2Cc3cc(N4CCN(CCCCCc5ccc(-c6cnc7[nH]cc(C(=O)c8c(F)ccc(NS(=O)(=O)N9CC[C@@H](F)C9)c8F)c7c6)cc5)CC4)ccc3C2=O)C(=O)N1 (stereo partly drawn)"
  target of assay: "BRAF G466V (Homo sapiens, UniProt P15056, G466V)"
  measure name: "Dmax"
  result: "35 to 70%"
- molecule: "O=C1CC[C@@H](N2Cc3cc(/C=C/CN4CC5(C4)CN(c4ccc(-c6cnc7[nH]cc(C(=O)c8c(F)ccc(NS(=O)(=O)N9CC[C@@H](F)C9)c8F)c7c6)cc4)C5)ccc3C2=O)C(=O)N1"
  target of assay: "BRAF G466V (Homo sapiens, UniProt P15056, G466V)"
  measure name: "Dmax"
  result: "35 to 70%"
- molecule: "COc1cc(N2CC3(CN(CCc4ccc(-c5cnc6[nH]cc(C(=O)c7c(F)ccc(NS(=O)(=O)N8CC[C@@H](F)C8)c7F)c6c5)cc4)C3)C2)ccc1C(=O)N[C@H]1CCC(=O)NC1=O"
  target of assay: "BRAF G466V (Homo sapiens, UniProt P15056, G466V)"
  measure name: "Dmax"
  result: "> 70%"
- molecule: "O=C1CC[C@@H](N2Cc3cc(CCCCN4CC5(C4)CN(c4ccc(-c6cnc7[nH]cc(C(=O)c8c(F)ccc(NS(=O)(=O)N9CC[C@@H](F)C9)c8F)c7c6)cc4)C5)ccc3C2=O)C(=O)N1"
  target of assay: "BRAF G466V (Homo sapiens, UniProt P15056, G466V)"
  measure name: "Dmax"
  result: "> 70%"
- molecule: "C[C@H]1C[C@@H](CN2CCC(c3ccc4c(c3)CN([C@H]3CCC(=O)NC3=O)C4=O)CC2)CCN1c1ccc(-c2cnc3[nH]cc(C(=O)c4c(F)ccc(NS(=O)(=O)N5CC[C@@H](F)C5)c4F)c3c2)cc1"
  target of assay: "BRAF G466V (Homo sapiens, UniProt P15056, G466V)"
  measure name: "Dmax"
  result: "> 70%"
- molecule: "O=C1CCC(N2Cc3cc(N4CCC(CN5CC6(CCN(c7ccc(-c8cnc9[nH]cc(C(=O)c%10c(F)ccc(NS(=O)(=O)N%11CC[C@@H](F)C%11)c%10F)c9c8)cn7)C6)C5)CC4)ccc3C2=O)C(=O)N1 (stereo partly drawn)"
  target of assay: "BRAF G466V (Homo sapiens, UniProt P15056, G466V)"
  measure name: "Dmax"
  result: "> 70%"
- molecule: "O=C1CC[C@@H](N2Cc3cc(N4CCC(CN5CCN(c6ccc(-c7cnc8[nH]cc(C(=O)c9c(F)ccc(NS(=O)(=O)N%10CC[C@@H](F)C%10)c9F)c8c7)cc6)CC5)CC4)c(F)cc3C2=O)C(=O)N1"
  target of assay: "BRAF G466V (Homo sapiens, UniProt P15056, G466V)"
  measure name: "Dmax"
  result: "35 to 70%"
- molecule: "COc1cc(C2CCN(CC3CCN(c4ccc(-c5cnc6[nH]cc(C(=O)c7c(F)ccc(NS(=O)(=O)N8CC[C@@H](F)C8)c7F)c6c5)cn4)CC3)CC2)cc2c1C(=O)N(C1CCC(=O)NC1=O)C2 (stereo partly drawn)"
  target of assay: "BRAF G466V (Homo sapiens, UniProt P15056, G466V)"
  measure name: "Dmax"
  result: "> 70%"
- molecule: "COc1cc(N2CC3(C2)CN(CC2CCN(c4ccc(-c5cnc6[nH]cc(C(=O)c7c(F)ccc(NS(=O)(=O)N8CC[C@@H](F)C8)c7F)c6c5)cc4)CC2)[C@@H]3C)cc2c1C(=O)N(C1CCC(=O)NC1=O)C2 (stereo partly drawn)"
  target of assay: "BRAF G466V (Homo sapiens, UniProt P15056, G466V)"
  measure name: "Dmax"
  result: "35 to 70%"
- molecule: "O=C1CC[C@H](N2Cc3cc(N4CCN(CC5CCN(c6ccc(-c7cnc8[nH]cc(C(=O)c9c(F)ccc(NS(=O)(=O)N%10CC[C@@H](F)C%10)c9F)c8c7)cc6)CC5)CC4)ccc3C2=O)C(=O)N1"
  target of assay: "BRAF G466V (Homo sapiens, UniProt P15056, G466V)"
  measure name: "Dmax"
  result: "> 70%"
- molecule: "COc1cc(N2CC3(CN(CC4CCN(c5ccc(-c6cnc7[nH]cc(C(=O)c8c(F)ccc(NS(=O)(=O)N9CC[C@@H](F)C9)c8F)c7c6)cc5)CC4)C3)C2)cc2c1C(=O)N([C@H]1CCC(=O)NC1=O)C2"
  target of assay: "BRAF G466V (Homo sapiens, UniProt P15056, G466V)"
  measure name: "Dmax"
  result: "> 70%"
- molecule: "COc1cc(C2CCN(CC3CC4(C3)CN(c3ccc(-c5cnc6[nH]cc(C(=O)c7c(F)ccc(NS(=O)(=O)N8CC[C@@H](F)C8)c7F)c6c5)cc3)C4)CC2)cc2c1C(=O)N(C1CCC(=O)NC1=O)C2 (stereo partly drawn)"
  target of assay: "BRAF G466V (Homo sapiens, UniProt P15056, G466V)"
  measure name: "Dmax"
  result: "35 to 70%"
- molecule: "O=C1CCC(N2Cc3cc(N4CCN(CC5CN(c6ccc(-c7cnc8[nH]cc(C(=O)c9c(F)ccc(NS(=O)(=O)N%10CC[C@@H](F)C%10)c9F)c8c7)cc6F)C5)CC4)ccc3C2=O)C(=O)N1 (stereo partly drawn)"
  target of assay: "BRAF G466V (Homo sapiens, UniProt P15056, G466V)"
  measure name: "Dmax"
  result: "35 to 70%"
- molecule: "O=C1CC[C@@H](NC(=O)N2CCCc3c(N4CC5(CN(CCc6ccc(-c7cnc8[nH]cc(C(=O)c9c(F)ccc(NS(=O)(=O)N%10CC[C@@H](F)C%10)c9F)c8c7)cc6)C5)C4)ccnc32)C(=O)N1"
  target of assay: "BRAF G466V (Homo sapiens, UniProt P15056, G466V)"
  measure name: "Dmax"
  result: "< 35%"
- molecule: "COc1cc(OCCN2CCN(CCOc3ccc(-c4cnc5[nH]cc(C(=O)c6c(F)ccc(NS(=O)(=O)N7CC[C@@H](F)C7)c6F)c5c4)cc3)CC2)cc2c1C(=O)N([C@@H]1CCC(=O)NC1=O)C2"
  target of assay: "BRAF G466V (Homo sapiens, UniProt P15056, G466V)"
  measure name: "Dmax"
  result: "35 to 70%"
- molecule: "O=C1CC[C@@H](N2Cc3cc(C4CN(CC5CC6(C5)CN(c5ccc(-c7cnc8[nH]cc(C(=O)c9c(F)ccc(NS(=O)(=O)N%10CC[C@@H](F)C%10)c9F)c8c7)cc5)C6)C4)ccc3C2=O)C(=O)N1"
  target of assay: "BRAF G466V (Homo sapiens, UniProt P15056, G466V)"
  measure name: "Dmax"
  result: "> 70%"

Origin of measurements: patent US12180193B2
